- measurement_target: phosphorylated VEGF-R2Δ50 (FLVK-P) (Homo sapiens, UniProt P35968, DEL940-989/E990V)
- Construct: VEGF-R2Δ50 contains residues 806-939 and 990-1171; made in house; host or cells: baculovirus/insect cells
- Sequence (P35968 with tags, fused parts or gaps DEL940-989/E990V limits assumed): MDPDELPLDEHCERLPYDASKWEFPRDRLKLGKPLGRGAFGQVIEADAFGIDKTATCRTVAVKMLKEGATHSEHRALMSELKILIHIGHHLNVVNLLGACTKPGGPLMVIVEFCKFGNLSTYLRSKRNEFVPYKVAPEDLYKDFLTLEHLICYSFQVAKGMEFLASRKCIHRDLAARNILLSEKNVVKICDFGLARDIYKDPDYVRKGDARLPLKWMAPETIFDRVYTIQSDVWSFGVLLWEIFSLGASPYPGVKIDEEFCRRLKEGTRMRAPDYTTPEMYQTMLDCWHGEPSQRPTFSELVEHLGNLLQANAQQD
- run_description: VEGF-R2 coupled spectrophotometric (FLVK-P) assay
- Assay type: biochemical
- test_conditions: Table 1; spectrophotometric assay
measurement_label: Ki (nM)
Reply with just the number (in nM).

Request the reported Ki associated with COc1cc(Nc2nc(N)c(-c3nc(-c4cccc(NS(C)(=O)=O)c4)cs3)s2)cc(OC)c1OC [D(3)]
63

// query: Cc1cc(C)cc(Nc2nc(N)c(-c3nc(-c4cccc(NC(=O)c5ccccc5)c4)cs3)s2)c1 [A(42)]
7.3

Another molecule to check: COc1cc(Nc2nc(N)c(-c3nc(-c4cccc(NC(=O)c5cccc(Cl)c5)c4)cs3)s2)cc(OC)c1OC [D(40)]
1.1

// next record COc1cc(Nc2nc(N)c(-c3nc(-c4cccc(NC(=O)c5cccc(Cl)c5)c4)no3)s2)cc(OC)c1OC [D(50)]
1.4

Request: COc1cc(Nc2nc(N)c(-c3nc(-c4cccc(NC(=O)c5ccccc5)c4)cs3)s2)cc(OC)c1OC [D(24)]
1.8

Same question, CC(=O)Nc1cc(Nc2nc(N)c(-c3nc(-c4cccc(NC(=O)c5ccccc5)c4)cs3)s2)ccc1C [A(48)] this time
3.1

Now this one: COc1cc(Nc2nc(N)c(-c3nc(-c4cccc(NC(=O)c5ccnc(Cl)c5)c4)cs3)s2)cc(OC)c1OC [D(55)]
6.3

Likewise for COc1cc(Nc2nc(N)c(-c3nc(-c4cccc(NC(C)=O)c4)cs3)s2)cc(OC)c1OC [D(1)] ?
46

FYI, the data here is from patent US6620828B2.
